Cited source for all entries: ChEMBL document CHEMBL4831512

# protocol-details: physchem
# test-conditions: buffer, pH 6.8
# Description: Equilibrium solubility of compound in buffer at pH 6.8 incubated over night under shaking condition by LC-MS/MS analysis
measurement-type: solubility thermodynamic

The recorded solubility thermodynamic for `Cc1cnn(-c2cc(-c3cc(S(=O)(=O)NCC(C)(C)O)ccc3C)cnc2N)c1` is 30 µg/mL

The recorded solubility thermodynamic for `Cc1ccc(S(=O)(=O)NCC(C)(C)O)cc1-c1cnc(N)c(-c2cnn(C)n2)c1` is 290 µg/mL

The recorded solubility thermodynamic for `Cc1ncc(-c2cc(-c3cc(S(=O)(=O)NCC(C)(C)O)ccc3C)cnc2N)o1` is 270 µg/mL

---
The recorded solubility thermodynamic for `Cc1ncc(-c2cc(-c3cc(S(=O)(=O)NCC(C)(C)O)ccc3C)cnc2N)s1` is 52 µg/mL

The recorded solubility thermodynamic for `Cc1noc(-c2cc(-c3cc(S(=O)(=O)NCC(C)(C)O)ccc3C)cnc2N)n1` is 160 µg/mL
